The following binders are shown together with reported EC50 values.
# system-under-test: T1, mIL1RAcP-Fc (murine, UniProt Q61730 21-359)
# T1 construct: also called P013_04; P013-04
# T1 sequence (looked up): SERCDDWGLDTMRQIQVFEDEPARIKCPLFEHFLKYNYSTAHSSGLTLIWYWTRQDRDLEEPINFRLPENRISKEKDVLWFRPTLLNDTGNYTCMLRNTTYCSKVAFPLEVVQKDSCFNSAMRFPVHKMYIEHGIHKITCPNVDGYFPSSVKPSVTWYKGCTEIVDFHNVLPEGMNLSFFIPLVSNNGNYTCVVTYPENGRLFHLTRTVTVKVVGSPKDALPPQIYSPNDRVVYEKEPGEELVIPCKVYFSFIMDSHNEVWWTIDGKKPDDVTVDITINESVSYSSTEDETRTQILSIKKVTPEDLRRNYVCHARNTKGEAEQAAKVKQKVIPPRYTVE
# assay-name: ELISA, recombinant purified mAb
# value in µg/mL; strip the unit string

Some binders with known EC50 results, for comparison:
binder="P013.S.01.B.A02 (antibody, V domains shown, rabbit monoclonal antibody; also called P013.A.00003.H11) VH: QSVEESGGRLVTPGTPLTLTCTVSGIDLSSYAMGWVRQAPGKGLEYIGVITSSATTYYASWAKGRFTISKTSSTTVDLRVTSLTTEDTATYFCARGGPGYSTNTHYAFDPWGPGTLVTVSS VL: AFEMTQTPSSVSEPVGGTVTIKCQASQSIYIYLSWYQQKPGQRPKLLIYDASKLASGVPSRFSGSGSGTEFTLTISGVQSDDAATYYCQQGATTYNVDNVFGGGTEVVVK" unit=µg/mL quantitative_readout=0.025
binder="P013.S.01.B.C03 (antibody, V domains shown, rabbit monoclonal antibody; also called P013.A.00133.D11) VH: QSVEESGGRLVTPGTPLTLTCTVSGIDLSNYAMSWVRQAPGKGLEWIGSVISGGSTYYATWARGRFTISKSSTTVDLKMTSLTTEDTATYFCARGCPGYNGDKYTFDLWGPGTLVTVSS VL: AFEMTQTPSSVSEPVGGTVTIKCQASQSIYNYLSWYQQKPGQRPKLLIYRASTLASGVPSRFKGSGSGTEFTLTISGVESADAATYYCQQGATSYDIENPFGGGTEVVVK" unit=µg/mL quantitative_readout=0.332

Ask: Report EC50 for P013.S.02.B.F05 (antibody, V domains shown, rabbit monoclonal antibody; also called P013.A.00109.B04) VH: RSLEESGGDLVKPGTSLTLTCTASGFSFSGNYYMCWVRQAPGKGLEWIACIVVGSGGNTYYAGWAKRRFTISKTSSTTVTLQMTSLTAADTATYFCASGSYDDYGDYWYFTLWGQGTLVTVSS VL: AIDMTQTPSPASAGVGDTVTINCQASENIYNFLAWYQQKPGHSPKLLIYVASKLASGVPSRFKGSGSGTQFTLTISDVQSDDAATYYCQQTYRYNDGDTAFGGGTEVVVK
Result: 0.044
